Sourced from ChEMBL document CHEMBL1158067

Task for the reader: assign each of the following molecules its reported Activity.
assay: ABTS radical scavenging activity assessed as Trolox equivalent antioxidant capacity index; assay type: physicochemical

Below, each entry is followed by its recorded Activity result.
O=C(/C=C/c1ccc(O)cc1)O[C@@H]1O[C@H](CO)[C@@H](O)[C@H](O)[C@H]1O    0.78
O=C(/C=C/c1ccc(O)cc1)OCc1cc(O)ccc1O[C@@H]1O[C@H](CO)[C@@H](O)[C@H](O)[C@H]1O [POPULOSIDE A]    2.07
O=C(O)/C=C/c1ccc(O)c(O)c1    1.98
O=C(O[C@H]1[C@H](Oc2ccccc2CO)O[C@H](CO)[C@@H](O)[C@@H]1O)c1ccccc1    0.24
COc1cc(/C=C/C(=O)OCc2ccccc2O[C@@H]2O[C@H](CO)[C@@H](O)[C@H](O)[C@H]2O)ccc1O [POPULOSIDE C]    1.55

Please look at the items below and tell me Activity for each one, in order.
1. OCc1ccccc1O[C@@H]1O[C@H](CO)[C@@H](O)[C@H](O)[C@H]1O
2. O=C(/C=C/c1ccc(O)c(O)c1)OCc1ccccc1O[C@@H]1O[C@H](CO)[C@@H](O)[C@H](O)[C@H]1O [POPULOSIDE]
3. O=C(O[C@H]1[C@H](Oc2ccccc2COC(=O)C2(O)C=CCCC2=O)O[C@H](CO)[C@@H](O)[C@@H]1O)c1ccccc1 (some centres not stated)
4. Cc1cc(C(C)(C)C)c(O)c(C(C)(C)C)c1 [BUTYLATED HYDROXYTOLUENE]

[0.21, 1.67, 0.12, 0.8]

Please look at the items below and tell me Activity for each one, in order.
1. O=C(/C=C/c1ccc(O)cc1)OCc1ccccc1O[C@@H]1O[C@H](CO)[C@@H](O)[C@H](O)[C@H]1O [POPULOSIDE B]
2. O=C(OCc1cc(O)ccc1O[C@@H]1O[C@H](CO)[C@@H](O)[C@H](O)[C@H]1O)c1ccccc1 [SALIREPOSIDE]
3. O=C(/C=C/c1ccc(O)cc1)O[C@H]1[C@H](OC2CCCCC2O)O[C@H](CO)[C@@H](O)[C@@H]1O (some centres not stated)

[1.13, 1.01, 1.27]
